target: T1, HLA-A*0201 molecule expressed on human T2 cells (human); assay: T2 cells (HLA-A*0201), peptide at 1 µM, anti-HLA-A2 flow cytometry
T1 construct: also called HLA-A2
Please go through the items and note down their mean relative fluorescence intensity (HIV peptide = 100).

# lookup: mean relative fluorescence intensity (HIV peptide = 100) of ILPGLLFGL [TNFRSF13C-B31] 1.5 % of HIV pol 589-597 at 100 µM

# lookup: mean relative fluorescence intensity (HIV peptide = 100) of TLLFLTPML [CD19-B2] 41 % of HIV pol 589-597 at 100 µM

# lookup: mean relative fluorescence intensity (HIV peptide = 100) of LQMGGFYLL [CD19-B7] 4.8 % of HIV pol 589-597 at 100 µM

# lookup: mean relative fluorescence intensity (HIV peptide = 100) of LLVGILHLV [CD19-B1] 8 % of HIV pol 589-597 at 100 µM

# lookup: mean relative fluorescence intensity (HIV peptide = 100) of ILIPAGIYL [MS4A1-B3] 17.8 % of HIV pol 589-597 at 100 µM

# lookup: mean relative fluorescence intensity (HIV peptide = 100) of TLAYLIFCL [CD19-H6] 4.1 % of HIV pol 589-597 at 100 µM

# lookup: mean relative fluorescence intensity (HIV peptide = 100) of FLLFLTPME [CD19-H2] 3 % of HIV pol 589-597 at 100 µM

# lookup: mean relative fluorescence intensity (HIV peptide = 100) of IALGGLLMI [MS4A1-H1] 0.7 % of HIV pol 589-597 at 100 µM
